# Ki against Histone deacetylase 7 (Homo sapiens, UniProt Q8WUI4), merged from multiple literature sources

Given the entry Cc1ccccc1NC(=O)C(F)(F)C(F)(F)C(F)(F)C(F)(F)C(F)(F)C(F)(F)C(=O)NO , report its measured Ki.
> 50 µM

Next entry: COc1ccc(NC(=O)C(F)(F)C(F)(F)C(F)(F)C(F)(F)C(F)(F)C(F)(F)C(=O)NO)cc1
> 50 µM

Next entry: O=C(CCCCCNC(=O)NC(=O)c1ccc(Br)cc1)NO
0.031 µM

Next entry: O=C(NO)C(F)(F)C(F)(F)C(F)(F)C(F)(F)C(F)(F)C(F)(F)C(=O)Nc1cccc(Cl)c1
> 50 µM

Next entry: CCCCCCc1nc2cc(/C=C/C(=O)NO)ccc2n1CCNC(C)C
0.041 µM

Next entry: Cc1cccc(NC(=O)C(F)(F)C(F)(F)C(F)(F)C(F)(F)C(F)(F)C(F)(F)C(=O)NO)c1
> 50 µM

Next entry: O=C(NO)C(F)(F)C(F)(F)C(F)(F)C(F)(F)C(F)(F)C(F)(F)C(=O)Nc1ccc(F)cc1
> 50 µM
